system: rumen inoculum from fistulated cows; assay: In vitro batch culture incubation of a Senecio PA mixture with rumen inoculum; format: in vitro ADME; conditions: incubation with rumen inoculum up to 20 h
OUTCOME_MEASURE: degradation rate in rumen incubation (half-life ranking)

C=C1C/C(=C/C)C(=O)O[C@@H]2CCN3CC=C(COC(=O)[C@]1(C)O)[C@H]23; fastest degradation
C/C=C1/C[C@@H](C)[C@@](C)(O)C(=O)OCC2=CCN3CC[C@@H](OC1=O)[C@@H]23; fastest degradation

Source of measurements: paper PMC9413219
